Just for reference, paper PMC9000719 is where these values come from.

Molecular target: Acetylcholinesterase (AChE, E.C. 3.1.1.7, from electric eel) (Electrophorus electricus)
Construct: purchased Sigma Aldrich
Assay: Crude screening on AChE inhibition (Ellman method)
Assay type: biochemical
Conditions: 2 μM compounds; means ± SEM of at least three independent experiments; normalized as percentage of control
Marks after values point to notes of the source that are not given here.

| MOLECULE | Inhibition Ratio (%) |
| --- | --- |
| CC12CCC(c3c1nc1ccccc1c3NCCCCCCCNC(=O)c1cc3ccccc3oc1=O)C2(C)C (stereo not shown) | 40.65 ± 4.28 ^j % |
| CC12CCC(c3c1nc1ccccc1c3NCCCCCCCNC(=O)c1cc3cc(OC(F)(F)F)ccc3oc1=O)C2(C)C (stereo not shown) | 40.35 ± 2.45 ^j % |
| Cc1ccc2oc(=O)c(C(=O)NCCCCCCCNc3c4c(nc5ccccc35)C3(C)CCC4C3(C)C)cc2c1 (stereo not shown) | 61.56 ± 4.65 ^ef % |
| COc1ccc2oc(=O)c(C(=O)NCCCCCNc3c4c(nc5ccccc35)C3(C)CCC4C3(C)C)cc2c1 (stereo not shown) | 86.68 ± 2.18 ^b % |
| CC12CCC(c3c1nc1ccccc1c3NCCCCCCNC(=O)c1cc3ccccc3oc1=O)C2(C)C (stereo not shown) | 66.57 ± 1.09 ^de % |
| COc1cc2cc(C(=O)NCCCCCCCNc3c4c(nc5ccccc35)C3(C)CCC4C3(C)C)c(=O)oc2cc1OC (stereo not shown) | 35.49 ± 3.86 ^k % |
| Cc1ccc2oc(=O)c(C(=O)NCCCCCNc3c4c(nc5ccccc35)C3(C)CCC4C3(C)C)cc2c1 (stereo not shown) | 85.71 ± 1.66 ^bc % |

* * *

Molecular target: Acetylcholinesterase (AChE, E.C. 3.1.1.7, from electric eel) (Electrophorus electricus, UniProt O42275)
Construct: purchased Sigma Aldrich
Assay: Crude screening on AChE inhibition (Ellman method)
Format: biochemical
Conditions: 2 μM compounds; means ± SEM of at least three independent experiments; normalized as percentage of control
Marks after values point to notes of the source that are not given here.
Recorded Inhibition Ratio (%) by entry
QUANTITY: Inhibition Ratio (%)

| COMPOUND | ENDPOINT_RESULT |
| --- | --- |
| CC12CCC(c3c1nc1ccccc1c3NCCCCCCCNC(=O)c1cc3cc(Br)ccc3oc1=O)C2(C)C (stereo not shown) [Compound 9c] | 44.05 ± 2.74 ^ij % |
| COc1cc2cc(C(=O)NCCCCCNc3c4c(nc5ccccc35)C3(C)CCC4C3(C)C)c(=O)oc2cc1OC (stereo not shown) [Compound 7g] | 84.75 ± 1.27 ^bc % |
| COc1ccc2cc(C(=O)NCCCCCNc3c4c(nc5ccccc35)C3(C)CCC4C3(C)C)c(=O)oc2c1 (stereo not shown) [Compound 7f] | 81.70 ± 4.82 ^c % |
| COc1ccc2cc(C(=O)NCCCCCCNc3c4c(nc5ccccc35)C3(C)CCC4C3(C)C)c(=O)oc2c1 (stereo not shown) [Compound 8f] | 62.44 ± 1.63 ^e % |
| COc1ccc2oc(=O)c(C(=O)NCCCCCCCNc3c4c(nc5ccccc35)C3(C)CCC4C3(C)C)cc2c1 (stereo not shown) [Compound 9e] | 62.15 ± 3.14 ^ef % |
| CC12CCC(c3c1nc1ccccc1c3NCCCCCNC(=O)c1cc3ccccc3oc1=O)C2(C)C (stereo not shown) [Compound 7a] | 71.11 ± 0.94 ^d % |
| COc1cc2cc(C(=O)NCCCCCCNc3c4c(nc5ccccc35)C3(C)CCC4C3(C)C)c(=O)oc2cc1OC (stereo not shown) [Compound 8g] | 62.74 ± 0.27 ^e % |
| CC12CCC(c3c1nc1ccccc1c3NCCCCCNC(=O)c1cc3cc(OC(F)(F)F)ccc3oc1=O)C2(C)C (stereo not shown) [Compound 7d] | 47.51 ± 2.65 ^hi % |
| CC12CCC(c3c1nc1ccccc1c3NCCCCCNC(=O)c1cc3cc(Br)ccc3oc1=O)C2(C)C (stereo not shown) [Compound 7c] | 50.72 ± 2.98 ^h % |
| COc1ccc2cc(C(=O)NCCCCCCCNc3c4c(nc5ccccc35)C3(C)CCC4C3(C)C)c(=O)oc2c1 (stereo not shown) [Compound 9f] | 56.11 ± 2.60 ^g % |

* * *

// values below are reported Ki
Biological target: AChE (Electrophorus electricus)
Sequence (O42275 24-633): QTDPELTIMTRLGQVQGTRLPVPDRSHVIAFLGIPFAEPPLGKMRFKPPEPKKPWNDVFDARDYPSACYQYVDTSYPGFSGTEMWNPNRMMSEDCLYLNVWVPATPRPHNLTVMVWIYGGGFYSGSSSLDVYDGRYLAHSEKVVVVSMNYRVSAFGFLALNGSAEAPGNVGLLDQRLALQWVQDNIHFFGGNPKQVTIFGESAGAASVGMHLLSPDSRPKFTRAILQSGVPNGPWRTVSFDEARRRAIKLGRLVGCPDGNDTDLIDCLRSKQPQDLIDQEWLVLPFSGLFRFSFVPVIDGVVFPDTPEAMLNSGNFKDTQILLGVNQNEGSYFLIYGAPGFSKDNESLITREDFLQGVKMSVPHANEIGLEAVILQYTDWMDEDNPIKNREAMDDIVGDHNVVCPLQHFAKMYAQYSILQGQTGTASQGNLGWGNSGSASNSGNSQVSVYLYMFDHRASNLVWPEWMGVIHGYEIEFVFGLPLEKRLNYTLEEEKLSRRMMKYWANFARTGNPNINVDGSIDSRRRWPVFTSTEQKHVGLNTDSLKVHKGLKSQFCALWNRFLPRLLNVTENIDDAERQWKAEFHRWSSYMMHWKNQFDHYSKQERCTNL
Assay: biochemical
Settings: inhibition constant against AChE; substrate ATCI at two concentrations
Method: Kinetic characterization was performed using Dixon’s method. […] Assay medium contained DTNB solution 15 mM (40 µL), AChE solution 10 units/mL (50 µL), substrate solutions (10 µL) and various concentrations of tested compounds (20 µL). […] Results were computed and presented on the Lineweaver–Burk plot to determine the Ki value and to distinguish the type of enzyme inhibition.
QUANTITY: Ki (nM)

| COMPOUND | QUANTITY | UNITS_LABEL | ENDPOINT_RESULT |
| --- | --- | --- | --- |
| COc1cc2cc(C(=O)NCCCCCNc3c4c(nc5ccccc35)C3(C)CCC4C3(C)C)c(=O)oc2cc1OC (stereo not drawn) | Ki | nM | 153 |
| COc1ccc2cc(C(=O)NCCCCCNc3c4c(nc5ccccc35)C3(C)CCC4C3(C)C)c(=O)oc2c1 (stereo not drawn) | Ki | nM | 118 |
| COc1ccc2oc(=O)c(C(=O)NCCCCCNc3c4c(nc5ccccc35)C3(C)CCC4C3(C)C)cc2c1 (stereo not drawn) | Ki | nM | 65.1 |
